Reported values of MIC for individual entries
System: P. aeruginosa (ΔmexAB-oprM)
Test: Broth microdilution MIC in iron-depleted CAMHB (IDM)
Assay type: cell-based
Conditions: Pseudomonas aeruginosa; iron-depleted CAMHB (IDM); […]; read-out: Minimum inhibitory concentration, P. aeruginosa ΔmexAB-oprM

Give me measured MIC, please, for this compound: O=C(O)c1c(F)ccc2c1OB(O)[C@@H](NC(=O)[C@H](NC(=O)N1CCN(C3CCN(C(=O)c4cccc(O)c4F)CC3)C1=O)c1cc(F)c(O)c(O)c1Cl)C2 (single isomer, unassigned)
< 1 µg/mL

Give me measured MIC, please, for this compound: O=C(NCCS(=O)(=O)N1CCN(C(=O)NC(C(=O)N[C@H]2Cc3ccc(F)c(C(=O)O)c3OB2O)c2cc(F)c(O)c(O)c2Cl)C1=O)c1cccc(O)c1 (stereo partly drawn)
< 1 µg/mL

Give me measured MIC, please, for this compound: O=C(NCCCN1CCN(C(=O)NC(C(=O)N[C@H]2Cc3ccc(F)c(C(=O)O)c3OB2O)c2cc(F)c(O)c(O)c2Cl)C(=O)C1=O)c1ccc(O)cc1O (stereo partly drawn)
< 1 µg/mL

* * *

Reported values of MIC for individual entries
Test system: N. gonorrhoeae WHO L
Assay: Liquid broth MIC in Fastidious broth
Conditions: Neisseria gonorrhoeae, read-out: Minimum Inhibitory Concentration (MIC), N. gonorrhoeae WHO L

{"compound": "CS(=O)(=O)N1CCN(C(=O)N[C@@H](C(=O)N[C@H]2Cc3ccc(F)c(C(=O)O)c3OB2O)c2ccc(P(=O)(O)O)c(F)c2F)C1=O", "MIC": "< 1 µg/mL"}
{"compound": "O=C(O)c1cccc2c1OB(O)[C@@H](NC(=O)[C@@H](NC(=O)c1cnc3sccn3c1=O)c1ccc(P(=O)(O)O)cc1)C2 (single isomer, unassigned)", "MIC": "16 to 32 µg/mL"}
{"compound": "O=C(O)c1cccc2c1OB(O)[C@@H](NC(=O)C(NC(=O)[C@H]1CCCN1)c1ccc(P(=O)(O)O)cc1)C2 (stereo partly drawn)", "MIC": "4 to 8 µg/mL"}
{"compound": "CC(=O)N1CCC[C@@H]1C(=O)N[C@H](C(=O)N[C@H]1Cc2cccc(C(=O)O)c2OB1O)c1ccc(P(=O)(O)O)cc1", "MIC": "16 to 32 µg/mL"}
{"compound": "CCC(=O)NC(C(=O)N[C@H]1Cc2cccc(C(=O)O)c2OB1O)c1ccc(P(=O)(O)O)cc1 (stereo partly drawn)", "MIC": "16 to 32 µg/mL"}

Give me measured MIC, please, for this compound: CCN1CCN(C(=O)NC(C(=O)N[C@H]2Cc3cccc(C(=O)O)c3OB2O)c2ccc(P(=O)(O)O)c(F)c2O)C(=O)C1=O (stereo partly drawn)
1 to 2 µg/mL

* * *

Test system: N. gonorrhoeae CDC-0197
Assay: Liquid broth MIC in Fastidious broth
Conditions: Neisseria gonorrhoeae, CDC0197, read-out: Minimum Inhibitory Concentration (MIC), N. gonorrhoeae CDC-0197
Reported values of MIC for individual entries

Solved cases (5 shown):
{"molecule": "CCC(=O)NC(C(=O)N[C@H]1Cc2cccc(C(=O)O)c2OB1O)c1ccc(P(=O)(O)O)cc1 (stereo partly drawn)", "system": "N. gonorrhoeae CDC-0197", "result": "16 to 32 µg/mL"}
{"molecule": "NS(=O)(=O)NC(C(=O)N[C@H]1Cc2cccc(C(=O)O)c2OB1O)c1ccc(P(=O)(O)O)cc1 (stereo partly drawn)", "system": "N. gonorrhoeae CDC-0197", "result": "16 to 32 µg/mL"}
{"molecule": "O=C(O)c1c(F)ccc2c1OB(O)[C@@H](NC(=O)C(NC(=O)N1CCN(CCCNC(=O)[C@@H]3CCCN3)C(=O)C1=O)c1cc(F)c(O)c(O)c1Cl)C2 (stereo partly drawn)", "system": "N. gonorrhoeae CDC-0197", "result": "16 to 32 µg/mL"}
{"molecule": "O=C(O)c1c(F)ccc2c1OB(O)[C@@H](NC(=O)C(NC(=O)N1CCN(Cc3ccc(O)c(O)c3Cl)C(=O)C1=O)c1ccc(P(=O)(O)O)cc1)C2 (stereo partly drawn)", "system": "N. gonorrhoeae CDC-0197", "result": "1 to 2 µg/mL"}
{"molecule": "Nc1ncc(C(=O)N[C@@H](C(=O)N[C@H]2Cc3cccc(C(=O)O)c3OB2O)c2ccc(P(=O)(O)O)cc2)s1 (racemic)", "system": "N. gonorrhoeae CDC-0197", "result": "16 to 32 µg/mL"}

Give me measured MIC, please, for this molecule: CC(=O)NC(C(=O)N[C@H]1Cc2cccc(C(=O)O)c2OB1O)c1ccc(P(=O)(O)O)cc1 (stereo partly drawn)
16 to 32 µg/mL

Give me measured MIC, please, for this molecule: O=C(O)c1cccc2c1OB(O)[C@@H](NC(=O)C(NC(=O)C1CC1)c1ccc(P(=O)(O)O)cc1)C2 (stereo partly drawn)
16 to 32 µg/mL

Give me measured MIC, please, for this molecule: O=C(O)c1cccc2c1OB(O)[C@@H](NC(=O)[C@H](NC(=O)c1cnc3n(c1=O)CCS3)c1ccc(P(=O)(O)O)cc1)C2 (single isomer, unassigned)
16 to 32 µg/mL

* * *

Test system: N. gonorrhoeae WHO G
Assay: Liquid broth MIC in Fastidious broth
Conditions: Neisseria gonorrhoeae, read-out: Minimum Inhibitory Concentration (MIC), N. gonorrhoeae WHO G
Reported values of MIC for individual entries

Solved cases (5 shown):
{"compound": "O=C(O)c1cccc2c1OB(O)[C@@H](NC(=O)[C@@H](NC(=O)c1ccn[nH]c1=O)c1ccc(P(=O)(O)O)cc1)C2 (single isomer, unassigned) [Example 177]", "MIC": "< 1 µg/mL"}
{"compound": "CS(=O)(=O)N1CCN(C(=O)N[C@H](C(=O)N[C@H]2Cc3cccc(C(=O)O)c3OB2O)c2ccc(P(=O)(O)O)cc2)C1=O (single isomer, unassigned) [Example 5]", "MIC": "< 1 µg/mL"}
{"compound": "O=C(CN1CCN(C(=O)NC(C(=O)N[C@H]2Cc3ccc(F)c(C(=O)O)c3OB2O)c2cc(F)c(O)c(O)c2Cl)C(=O)C1=O)Nc1ccc(O)cc1 (stereo partly drawn) [Example 230]", "MIC": "4 to 8 µg/mL"}
{"compound": "CS(=O)(=O)N1CCN(C(=O)NC(C(=O)N[C@H]2Cc3cccc(C(=O)O)c3OB2O)c2ccc(P(=O)(O)O)c(F)c2O)C1=O (stereo partly drawn) [Example 48]", "MIC": "< 1 µg/mL"}
{"compound": "CCN1CCN(C(=O)NC(C(=O)N[C@H]2Cc3cccc(C(=O)O)c3OB2O)c2ccc(P(=O)(O)O)c(F)c2O)C(=O)C1=O (stereo partly drawn) [Example 198]", "MIC": "< 1 µg/mL"}

Give me measured MIC, please, for this compound: O=C(O)c1cccc2c1OB(O)[C@@H](NC(=O)[C@H](NC(=O)c1cnc3sccn3c1=O)c1ccc(P(=O)(O)O)cc1)C2 (single isomer, unassigned) [Example 195]
1 to 2 µg/mL

* * *

Test system: B. humptydooensis ATCC BAA-2767
Experiment: microbe, parasite or virus in culture
Assay type: cell-based
Settings: Burkholderia humptydooensis, ATCCBAA2767, read-out: Minimum inhibitory concentration (MIC), B. humptydooensis ATCC BAA-2767
Reported values of MIC for individual entries

Solved cases (2 shown):
{"compound": "O=C(NCCCN1CCN(C(=O)N[C@@H](C(=O)N[C@H]2Cc3ccc(F)c(C(=O)O)c3OB2O)c2cc(F)c(O)c(O)c2Cl)C1=O)c1cccc(O)c1 [Example 255]", "result": "< 1 µg/mL"}
{"compound": "O=C(NCCCN1CCN(C(=O)NC(C(=O)N[C@H]2Cc3ccc(F)c(C(=O)O)c3OB2O)c2cc(F)c(O)c(O)c2Cl)C(=O)C1=O)c1cc(O)cc(F)c1 (stereo partly drawn) [Example 410]", "result": "> 128 µg/mL"}

Continue with the next compound.
Give me measured MIC, please, for this compound: O=C(O)c1c(F)ccc2c1OB(O)[C@@H](NC(=O)[C@H](NC(=O)N1CCN(C3CCN(C(=O)Nc4ccc(F)c(O)c4)CC3)C1=O)c1cc(F)c(O)c(O)c1Cl)C2 (single isomer, unassigned) [Example 449]
2 to 4 µg/mL

* * *

System: N. gonorrhoeae WHO Z
Assay: Liquid broth MIC in Fastidious broth
Conditions: Neisseria gonorrhoeae, read-out: Minimum Inhibitory Concentration, WHO Z
property_measured: MIC

Solved cases (4 shown):
{"compound": "O=C(O)c1c(F)ccc2c1OB(O)[C@@H](NC(=O)C(NC(=O)N1CCN(S(=O)(=O)CCCNC(=O)[C@@H]3CCCN3)C1=O)c1cc(F)c(O)c(O)c1Cl)C2 (some centres unmarked) [Example 275]", "MIC": "16 to 32 µg/mL"}
{"compound": "O=C(NCCS(=O)(=O)N1CCN(C(=O)NC(C(=O)N[C@H]2Cc3ccc(F)c(C(=O)O)c3OB2O)c2cc(F)c(O)c(O)c2Cl)C1=O)c1cccnc1 (some centres unmarked) [Example 262]", "MIC": "16 to 32 µg/mL"}
{"compound": "O=C(NCCS(=O)(=O)N1CCN(C(=O)NC(C(=O)N[C@H]2Cc3ccc(F)c(C(=O)O)c3OB2O)c2cc(F)c(O)c(O)c2Cl)C1=O)Nc1cccc(O)c1 (some centres unmarked) [Example 266]", "MIC": "4 to 8 µg/mL"}
{"compound": "O=C(NCCN1CCN(C(=O)NC(C(=O)N[C@H]2Cc3ccc(F)c(C(=O)O)c3OB2O)c2cc(F)c(O)c(O)c2Cl)C1=O)Nc1ccncc1 (some centres unmarked) [Example 250]", "MIC": "> 64 µg/mL"}

Continue with the next compound.
Give me measured MIC, please, for this compound: O=C(NCCS(=O)(=O)N1CCN(C(=O)N[C@@H](C(=O)N[C@H]2Cc3ccc(F)c(C(=O)O)c3OB2O)c2cc(F)c(O)c(O)c2Cl)C1=O)Nc1cccnc1 [Example 267]
4 to 8 µg/mL
